target: UniProt Q9NYK1; experiment: TLR7 inhibition reporter assay (HEK-Blue cells, SEAP reporter, gardiquimod stimulation); details: HEK-Blue cells overexpressing human TLR7, SEAP reporter, gardiquimod 7.5 μM
Sequence (Q9NYK1 27-1049): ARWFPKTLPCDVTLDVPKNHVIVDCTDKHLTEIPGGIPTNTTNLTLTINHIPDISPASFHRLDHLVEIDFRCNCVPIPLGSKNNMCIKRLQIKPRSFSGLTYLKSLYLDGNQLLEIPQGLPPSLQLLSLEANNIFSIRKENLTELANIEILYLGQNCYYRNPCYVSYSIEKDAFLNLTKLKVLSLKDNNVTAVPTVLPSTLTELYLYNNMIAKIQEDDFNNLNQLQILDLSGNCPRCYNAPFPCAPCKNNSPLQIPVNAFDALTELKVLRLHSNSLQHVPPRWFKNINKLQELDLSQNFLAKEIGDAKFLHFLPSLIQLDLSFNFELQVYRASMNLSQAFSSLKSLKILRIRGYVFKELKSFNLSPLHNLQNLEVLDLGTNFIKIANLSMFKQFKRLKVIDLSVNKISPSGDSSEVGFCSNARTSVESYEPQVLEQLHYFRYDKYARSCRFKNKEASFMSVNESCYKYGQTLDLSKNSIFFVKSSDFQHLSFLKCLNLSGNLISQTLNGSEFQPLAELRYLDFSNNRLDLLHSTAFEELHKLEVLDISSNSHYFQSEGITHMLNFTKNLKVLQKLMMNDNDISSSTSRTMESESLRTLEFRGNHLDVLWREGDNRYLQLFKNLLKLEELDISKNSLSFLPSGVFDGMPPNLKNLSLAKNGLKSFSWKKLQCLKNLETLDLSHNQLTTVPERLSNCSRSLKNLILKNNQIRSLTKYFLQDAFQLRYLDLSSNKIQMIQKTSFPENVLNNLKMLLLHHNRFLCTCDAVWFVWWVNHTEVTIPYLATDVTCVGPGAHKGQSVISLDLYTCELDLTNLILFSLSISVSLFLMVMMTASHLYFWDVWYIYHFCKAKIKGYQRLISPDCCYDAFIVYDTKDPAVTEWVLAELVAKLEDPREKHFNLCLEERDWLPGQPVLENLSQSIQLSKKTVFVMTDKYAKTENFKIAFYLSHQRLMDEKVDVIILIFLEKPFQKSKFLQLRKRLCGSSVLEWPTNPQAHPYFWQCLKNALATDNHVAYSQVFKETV
recordedEndpoint: IC50

These recorded examples may help you get a feel for the data.
{"columns": ["compound", "recordedEndpoint", "testResult"],
 "data": [
  ["Cc1cc2ncnn2nc1-c1[nH]c2ccc(C3CCN(C4CCOCC4)CC3)cc2c1C(C)C [Example 687]", "IC50", "< 100 nM"],
  ["Cc1cc(-c2[nH]c3ccc(C4CCN(C(=O)CN(C)C)CC4)cc3c2C(C)C)cc2nccn12 [Example 500]", "IC50", "100 to 1000 nM"],
  ["CNC(=O)CN1CCC(c2ccc3[nH]c(-c4nn5ncnc5c(OC)c4C)c(C(C)C)c3c2)CC1 [Example 281]", "IC50", "< 100 nM"],
  ["Cc1cc(-c2[nH]c3ccc(C4CCNCC4)cc3c2C(C)C)cc2ccnn12 [Example 143]", "IC50", "< 100 nM"]
]}

Exercise: What IC50 value was documented for this compound, CCc1c(-c2ccnc3[nH]ccc23)[nH]c2ccc(C3CCN(C4CCN(C)CC4)CC3)cc12 [Example 839] ?
Solution: < 100 nM

Exercise: Repeat with CNC(=O)CN1CCC(c2ccc3[nH]c(-c4cc(OC)n5ccnc5c4)c(C(C)C)c3c2)CC1 [Example 356]
Solution: 100 to 1000 nM

Exercise: Repeat with CC(C)c1c(-c2ccc3cnnn3c2)[nH]c2ccc(C3CCN(C(=O)CN(C)C)CC3)cc12 [Example 464]
Solution: 100 to 1000 nM

Exercise: Repeat with CC(C)c1c(-c2cc(CO)c3nccn3c2)[nH]c2ccc(C3CCN(C(=O)CN(C)C)CC3)cc12 [Example 492]
Solution: < 100 nM

Exercise: Repeat with CC(C)c1c(-c2ccnc3[nH]ncc23)[nH]c2ccc(C3CCN(C(=O)CS(C)(=O)=O)CC3)cc12 [Example 614]
Solution: < 100 nM

Exercise: Repeat with Cc1c(-c2ccnc3[nH]nnc23)[nH]c2ccc(C3CCNCC3)cc12 [Example 233]
Solution: 1000 to 50000 nM

Exercise: Repeat with CC(C)c1c(-c2cn(C)c3ncccc23)[nH]c2ccc(C3CCN(CC(=O)N4CCOCC4)CC3)cc12 [Example 294]
Solution: < 100 nM

Exercise: Repeat with Cc1ncc(CN2CCC(c3ccc4[nH]c(-c5ccnc6[nH]nc(C)c56)c(C(C)C)c4c3)CC2)[nH]1 [Example 872]
Solution: 1000 to 50000 nM

Exercise: Repeat with CNCC(=O)N1CCC(c2ccc3[nH]c(-c4cnc5ccnn5c4)c(C(C)C)c3c2)CC1 [Example 503]
Solution: 100 to 1000 nM

Exercise: Repeat with CNC(=O)c1cnn2c(C)cc(-c3[nH]c4ccc(C5CCNCC5)cc4c3C(C)C)cc12 [Example 274]
Solution: 100 to 1000 nM

Exercise: Repeat with Cc1ccc(-c2[nH]c3ccc(C4CCN(CC(C)(C)O)CC4)cc3c2C(C)C)c2ncnn12 [Example 769]
Solution: < 100 nM

Exercise: Repeat with Cc1nc2cc(-c3[nH]c4ccc(C5CCN(C(=O)[C@@H]6C[C@@H](O)CN6)CC5)cc4c3C(C)C)ccn2n1 [Example 540]
Solution: < 100 nM

Values were extracted from patent US11739098B2.
